Target: T1, Human PD-1 protein with histidine and avi tags (ACRO Biosystems, PD1-H82E4) (human, UniProt Q15116 25-167)
T1 construct: Captured on streptavidin (SA) sensors in the BLI assay; not shown: histidine and avi tags
T1 sequence (Q15116 25-167 limits assumed): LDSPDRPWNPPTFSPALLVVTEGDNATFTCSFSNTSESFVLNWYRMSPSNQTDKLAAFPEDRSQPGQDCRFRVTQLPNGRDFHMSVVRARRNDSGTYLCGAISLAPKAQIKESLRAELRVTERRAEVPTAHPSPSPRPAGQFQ
Test: BLI (Octet Red96e), PD-1 captured on SA sensor, 1:1 local fit
Listed here are binders together with their documented kon.
assay.metric: kon (M⁻¹ s⁻¹)

# binder, observed.result
data = [
    ("PR005101 (VHH, Monovalent single-domain (VH) variant of PR002481 with Flag-6His tag) VHH: EVQLVETGGGLIQPGGSLRLSCAASGFNVSSHYMSWVRQAPGKGREWVSIIDKGGGTYYADSVKGRFTISRDNSKNRLYLQMNSLRAEDTAMYYCARATAVAEKNGYNYPFNYWGQGTLVTVSS", 2940),
    ("PR005149 (VHH, Monovalent single-domain (VH) variant of PR002481 with Flag-6His tag) VHH: EVQLVETGGGLIQPGGSLRLSCAASGFNVSSHYMSWVRQAPGKGREWVSIIDKAGSGYYADSVKGRFTISRDNSKNRLYLQMNSLRAEDTAMYYCARATEVREKQGYNYPFNYWGQGTLVTVSS", 3450),
    ("PR005097 (VHH, Monovalent single-domain (VH) variant of PR002481 with Flag-6His tag) VHH: EVQLVETGGGLIQPGGSLRLSCAASGFNVSSHYMSWVRQAPGKGREWVSIIDGGGSTYYADSVKGRFTISRDNSKNRLYLQMNSLRAEDTAMYYCARATAVREKNGYNYPFNYWGQGTLVTVSS", 56600),
    ("PR005583 (antibody, human IgG1, V domains shown, no light chain; also called anti-PD1 PR002481Com_29 HCAb hIgG1) VH: EVQLVETGGGLIQPGGSLRLSCAASGFNVASFYMSWVRQAPGKGREWVSIIDKAGSTYYADSVKGRFTISRDNSKNRLYLQMNSLRAEDTAMYYCARATEVREKQGYNYPFNYWGQGTLVTVSS", 8280),
]
